Numbers sourced from patent US20190127366A1.

# pIC50 per entry
Target: human complement factor D (Homo sapiens)
Construct: purchased R&D Systems 1824-SE
Sequence (P00746 26-253): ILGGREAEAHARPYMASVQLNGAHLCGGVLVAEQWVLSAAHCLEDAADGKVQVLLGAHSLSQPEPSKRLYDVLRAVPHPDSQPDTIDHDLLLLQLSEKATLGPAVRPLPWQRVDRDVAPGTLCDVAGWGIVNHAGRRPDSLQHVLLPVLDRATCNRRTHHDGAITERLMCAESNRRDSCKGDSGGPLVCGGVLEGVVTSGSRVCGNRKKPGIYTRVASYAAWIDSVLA
Assay: In vitro enzyme inhibition (Z-Lys-SBzl/DTNB absorbance assay)
Assay type: biochemical
Conditions: Complement Factor D (R&D Systems), substrate Z-Lys-SBzl, A405 nm; read-out: CFD IC50
pIC50: −log10 of the molar value.

Compound	Result
NC(=O)c1nn(CC(=O)N2[C@@H]3CC[C@@H](C3)[C@H]2C(=O)Nc2cc(C(=O)O)cc(Cl)n2)c2ccccc12	> 7.00
NC(=O)c1nn(CC(=O)N2[C@H](C(=O)NCc3cccc(Cl)c3F)C[C@@H]3CCC[C@@H]32)c2cc(F)ccc12	> 7.00
NC(=O)c1nn(CC(=O)N2[C@@H]3CC[C@@H](C3)[C@H]2C(=O)Nc2cccc(Cl)n2)c2ccc(C3CC3)cc12 [Example 56, 2,2,2-trifluoroacetate]	6.00 to 7.00
NC(=O)c1nn(CC(=O)N2CC[C@H]2C(=O)NCc2cccc(Cl)c2F)cc1Br	5.00 to 6.00
CC(=O)c1nn(CC(=O)N2[C@H](C(=O)Nc3cccc(Cl)n3)C[C@@H]3CCC[C@@H]32)c2ccc(Cl)cc12	6.00 to 7.00
NC(=O)c1nn(CC(=O)N2[C@H](C(=O)Nc3cccc(Cl)n3)C[C@@H]3CCC[C@@H]32)c2ccc([N+](=O)[O-])cc12	5.00 to 6.00
NC(=O)c1nn(CC(=O)N2[C@@H]3CC[C@@H](C3)[C@H]2C(=O)Nc2cccc(OC(F)(F)F)c2F)c2cnccc12	5.00 to 6.00
NC(=O)c1nn(CC(=O)N2[C@@H]3CC[C@@H](C3)[C@H]2C(=O)NCc2c(Br)ccc(Cl)c2F)c2ccccc12	5.00 to 6.00

// next entry
Q: Indicate the recorded pIC50 value for this compound: COC(=O)C(NC(=O)[C@@H]1[C@H]2CC[C@H](C2)N1C(=O)Cn1nc(C(N)=O)c2ccccc21)c1cccc(Cl)c1F (stereo partly shown)
A: 5.00 to 6.00
